- EXPERIMENTAL_TARGET: PDE5 from human platelets (Homo sapiens)
- Construct: from tissue; host or cells: human platelets
- TEST_DETAILS: PDE5 inhibitory activity test (scintillation proximity assay)
- Assay type: biochemical
- TEST_PARAMETERS: PDE5 from human platelets
- Experimental: The PDE5 and PDE3 were isolated form human platelets, while the PDE6 was isolated form bovine retinas. […] Shook for 20 minutes and settled for 30 minutes in the dark, then counted on a BECKMAN LS6500 MULTI-PURPOSE SCINTILLATION COUNTER. The IC50 value for the compounds according the present invention was calculated according the counts. […]
OUTCOME_MEASURE: IC50 (nM)
Write the value in nM as a bare number.

Solved entries:
CCCc1nn(C)c2c(=O)[nH]c(-c3cc(S(=O)(=O)N(CCO)CCN4CCCCC4)ccc3OCC)nc12 [Example 29] :: 0.31
CCCc1nn(C)c2c(=O)[nH]c(-c3cc(S(=O)(=O)N(CCOC)CCN(CC)CC)ccc3OCC)nc12 [Example 11] :: 38.1
CCCc1nn(C)c2c(=O)[nH]c(-c3cc(S(=O)(=O)N(CCO)CCN(CC)CC)ccc3OCC)nc12 [Example 13] :: 7.37
CCCc1nn(C)c2c(=O)[nH]c(-c3cc(S(=O)(=O)N(CCN4CCOCC4)Cc4ccccc4)ccc3OC)nc12 [Example 26] :: 24.9
CCCc1nn(C)c2c(=O)[nH]c(-c3cc(S(=O)(=O)N(CCOCCOC(C)=O)CCN(CC)CC)ccc3OCC)nc12 [Example 15] :: 10.6

Any idea what IC50 was measured for CCCOc1ccc(S(=O)(=O)N(CCO)CCN(CC)CC)cc1-c1nc2c(CCC)nn(C)c2c(=O)[nH]1 [Example 14] ? 0.862

Any idea what IC50 was measured for CCCOc1ccc(S(=O)(=O)N(CCOC(C)=O)CCN2CCOCC2)cc1-c1nc2c(CCC)nn(C)c2c(=O)[nH]1 [Example 96] ? 4.24

Any idea what IC50 was measured for CCCc1nn(C)c2c(=O)[nH]c(-c3cc(S(=O)(=O)N(CCOCCO)CCN(CC)CC)ccc3OCC)nc12 [Example 16] ? 13.4

Any idea what IC50 was measured for CCCOc1ccc(S(=O)(=O)N(CC)CCN2CCOCC2)cc1-c1nc2c(CCC)nn(C)c2c(=O)[nH]1 [Example 41] ? 10.5

Any idea what IC50 was measured for CCCOc1ccc(S(=O)(=O)N(CCCOC)CCCOC(C)=O)cc1-c1nc2c(CCC)nn(C)c2c(=O)[nH]1 [Example 118] ? 5.41

Any idea what IC50 was measured for CCOc1ccc(S(=O)(=O)N(CCOC(=O)c2cccnc2)CCOC(=O)c2cccnc2)cc1-c1nc2c(CC)nn(C)c2c(=O)[nH]1 [Example 7] ? 0.5

Any idea what IC50 was measured for CCCOc1ccc(S(=O)(=O)N(CCCO)CCCO)cc1-c1nc2c(CCC)nn(C)c2c(=O)[nH]1 [Example 37] ? 4.9

Any idea what IC50 was measured for CCCOc1ccc(S(=O)(=O)N(CCOCC)CCN2CCOCC2)cc1-c1nc2c(CCC)nn(C)c2c(=O)[nH]1 [Example 111] ? 6.83
